Just for reference, patent US8829175B2 is where these values come from.

assay explanation: in vivo
Parameters: species or system nude mice
condition details: nude, mouse, 92 ng, tumor uptake
Starred links: 1 amine or outer side, 2 acyl side, 3 side chain; linkers in the order of their positions; H or OH if unused. Non-standard residues stand in square brackets, D forms with d. Residues, ends and D or L forms follow the SMILES beside them. Groups on a side chain read outwards from the residue. *: point of attachment. DOTA = O=C(O)CN1CCN(CC(=O)O)CCN(CC(=O)*)CCN(CC(=O)O)CC1; NH(2-(imidazol-4-yl)ethyl) = c1ncc(CCN*)[nH]1; Suc = O=C(CCC(=O)[*:2])[*:1]; X1 = NC(=S)NN=CC(=O)*

| compound | tissue uptake at 24 h, %ID/g |
| --- | --- |
| NC(=O)[C@H](CCCCNC(=O)[C@H](CS)NC(=O)C=NNC(N)=S)NC(=O)[C@H](CCCCNC(=O)CNC(=O)CCC(=O)NCCc1c[nH]cn1)NC(=O)[C@@H](Cc1ccc(O)cc1)NC(=O)[C@H](CCCCNC(=O)CNC(=O)CCC(=O)NCCc1c[nH]cn1)NC(=O)[C@H](Cc1ccccc1)NC(=O)CN1CCN(CC(=O)O)CCN(CC(=O)O)CCN(CC(=O)O)CC1 [IMP-245] ({DOTA}-FK([Gly-Suc-NH(2-(imidazol-4-yl)ethyl)])[dY]K([Gly-Suc-NH(2-(imidazol-4-yl)ethyl)])K([Cys-X1])-NH2; N-terminus and C-terminus assumed) | 0.3 |

---

assay explanation: in vivo
Parameters: species or system nude mice
condition details: nude, mouse, 92 ng
Starred links: 1 amine or outer side, 2 acyl side, 3 side chain; linkers in the order of their positions; H or OH if unused. Non-standard residues stand in square brackets, D forms with d. Residues, ends and D or L forms follow the SMILES beside them. Groups on a side chain read outwards from the residue. *: point of attachment. DOTA = O=C(O)CN1CCN(CC(=O)O)CCN(CC(=O)*)CCN(CC(=O)O)CC1; NH(2-(imidazol-4-yl)ethyl) = c1ncc(CCN*)[nH]1; Suc = O=C(CCC(=O)[*:2])[*:1]; X1 = NC(=S)NN=CC(=O)*

| compound | unit text | tissue uptake at 24 h |
| --- | --- | --- |
| NC(=O)[C@H](CCCCNC(=O)[C@H](CS)NC(=O)C=NNC(N)=S)NC(=O)[C@H](CCCCNC(=O)CNC(=O)CCC(=O)NCCc1c[nH]cn1)NC(=O)[C@@H](Cc1ccc(O)cc1)NC(=O)[C@H](CCCCNC(=O)CNC(=O)CCC(=O)NCCc1c[nH]cn1)NC(=O)[C@H](Cc1ccccc1)NC(=O)CN1CCN(CC(=O)O)CCN(CC(=O)O)CCN(CC(=O)O)CC1 [IMP-245] ({DOTA}-FK([Gly-Suc-NH(2-(imidazol-4-yl)ethyl)])[dY]K([Gly-Suc-NH(2-(imidazol-4-yl)ethyl)])K([Cys-X1])-NH2; N-terminus and C-terminus assumed) | %ID/g | 3.71 |

---

assay explanation: in vivo
Set-up: species or system nude mice
condition details: nude, mouse
Starred links: 1 amine or outer side, 2 acyl side, 3 side chain; linkers in the order of their positions; H or OH if unused. Non-standard residues stand in square brackets, D forms with d. Residues, ends and D or L forms follow the SMILES beside them. Groups on a side chain read outwards from the residue. *: point of attachment. DOTA = O=C(O)CN1CCN(CC(=O)O)CCN(CC(=O)*)CCN(CC(=O)O)CC1; NH(2-(imidazol-4-yl)ethyl) = c1ncc(CCN*)[nH]1; Suc = O=C(CCC(=O)[*:2])[*:1]; X1 = NC(=S)NN=CC(=O)*
test readout: tissue uptake at 24 h (%ID/g)

| compound | test readout | meas value |
| --- | --- | --- |
| NC(=O)[C@H](CCCCNC(=O)[C@H](CS)NC(=O)C=NNC(N)=S)NC(=O)[C@H](CCCCNC(=O)CNC(=O)CCC(=O)NCCc1c[nH]cn1)NC(=O)[C@@H](Cc1ccc(O)cc1)NC(=O)[C@H](CCCCNC(=O)CNC(=O)CCC(=O)NCCc1c[nH]cn1)NC(=O)[C@H](Cc1ccccc1)NC(=O)CN1CCN(CC(=O)O)CCN(CC(=O)O)CCN(CC(=O)O)CC1 [IMP-245] ({DOTA}-FK([Gly-Suc-NH(2-(imidazol-4-yl)ethyl)])[dY]K([Gly-Suc-NH(2-(imidazol-4-yl)ethyl)])K([Cys-X1])-NH2; N-terminus and C-terminus assumed) | tissue uptake at 24 h | 3.81 |
